# Tested on: RARb:RXRa (NR concentration 270 nM, RXRa partner concentration 90 nM)
# Assay protocol: PBM binding z-score (relative to random genomic background probes); higher = stronger binding; sequences stand for … in GC…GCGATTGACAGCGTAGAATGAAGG
Kindly state PBM binding z-score for each of the entries shown.
Give bare numbers.

> print(dat)
                  biopolymer.sequence  assay.value
1  TCTTGTCGATCAAAGGTTAAGAAAGCCGAAGCCT         1.91
2  ATCTTTAGGTAAAAGTTCAGTGAATCCCGAGGAT         2.51
3  ATCTCTAGGTAAAGTTCAGTGAGAGATCGATAGA         2.58
4  AGGCAAAGTTCAGGACGAGGTAACGTAAAGCACG         4.26
5  GATACAGGGTCAGCTAGAGGCCAAAGTATGGAAA         4.25
6  TCTTGTAGATCAATAGAGGTTAAGAACGTGCGCT        0.956

Would you be so kind as to report PBM binding z-score for each listed record?
1. GCTATTAGTTGAAAGGGCAACTGAATGATTCTCG
2. AGAAGGAGGTTAAGATCAGGGAAACAGAATACAT
3. GCAGACAGGTGAAACGCAGGTAATTCAGGGTGGC
4. ATCTCTAGGTAACCAAGTTCAGTGAGTGCCGAAC
5. GGAACGAGGGCAAGTTGACAGCAGAGTTTGATGG

Resp:
[2.1, 1.85, 0.697, 1.21, 2.51]

Req: Entry under review: AGAACGAGGGCAATGAGTTGATAGAACGGGTGGC . Reported PBM binding z-score?
Resp: 1.83
